System: HCT116 MTAP-deleted cell lines
Test: Cell viability assay (CellTiter-Glo, 7 days), HCT116 MTAP-deleted
Format: cell-based
Conditions: Homo sapiens, HCT-116; cell viability assay, HCT116 MTAP-deleted; class symbols; read-out: CC50
# Lookup of reported CC50 keyed by entry

COc1cc(C(F)(F)F)ccc1[C@H](C)N(C)C(=O)c1cc2c(cc1F)nc(N)c1cncn12 :: 100 to 1000 nM
CN(C(=O)c1cc2c(cc1F)nc(N)c1cncn12)[C@@H]1COc2cc(C#CC(C)(C)C#N)ccc21 :: < 100 nM
CN(C(=O)c1cc2c(cc1F)nc(N)c1cncn12)[C@@H]1COc2cc([C@@H]3C[C@H]3C#N)c(F)cc21 :: < 100 nM
CN(C(=O)c1cc2c(cc1F)nc(N)c1cncn12)C1COc2cc3c(cc21)CCC3 (centres unmarked) :: < 100 nM
CO[C@@H]1Cc2cc(C(F)(F)F)ccc2[C@@H]1N(C)C(=O)c1cc2c(cc1F)nc(N)c1cncn12 :: 100 to 1000 nM

// Cc1ncn2c1c(N)nc1ccc(C(=O)N(C)[C@@H]3COCc4cc(Br)ccc43)cc12 : CC50 value = < 100 nM

// [2H]C1([2H])CC[C@@H]2Oc3cc(C(F)(F)F)ccc3[C@@H]2N1C(=O)c1cc2c(cn1)nc(N)c1cncn12 : CC50 value = < 100 nM

// CN(C(=O)c1cc2c(cc1F)nc(N)c1cncn12)[C@@H]1COc2cc(Cl)ccc21 : CC50 value = < 100 nM

// Nc1nc2cc(F)c(C(=O)N3CCO[C@@H]4Cc5cc(C(F)(F)F)cc(F)c5[C@@H]43)cc2n2cncc12 : CC50 value = < 100 nM

// Cc1ncc2c(N)nc3cnc(C(=O)N4C[C@@H](F)C[C@@H]5Oc6cc(C(F)(F)F)ccc6[C@@H]54)cc3n12 : CC50 value = < 100 nM

// COC1(C#Cc2ccc3c(c2)OC[C@H]3N(C)C(=O)c2ccc3nc(N)c4cncn4c3c2)CCC1 : CC50 value = 100 to 1000 nM

Where these numbers come from: patent US12448388B2
